Tested on: RERF-GC-1B (Gastric Carcinoma);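 note: after 72 h of two-drug dosing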
Assay: Bliss excess, mean over the matrix (fraction); higher = more synergy
Binning of Bliss excess into classes: lowest (below -0.03), middle (-0.03 to below 0.01), highest (0.01 or more)

Answered examples (3):
COc1cccc(OCCCN)c1-c1cc(Nc2cnc(C#N)cn2)n[nH]1 [Prexasertib] + Cc1cc2ncnn2cc1Nc1ncc2c(n1)n(C1CCOCC1)c(=O)n2C [AZD7648] (first compound max 1 µM, 7x7, partner max 10 µM)
middle
Cc1nc(Nc2ncc(C(=O)Nc3c(C)cccc3Cl)s2)cc(N2CCN(CCO)CC2)n1 [Dasatinib] + CC(=O)Nc1cccc(-n2c(=O)n(C3CC3)c(=O)c3c(Nc4ccc(I)cc4F)n(C)c(=O)c(C)c32)c1 [Trametinib] (first compound max 2 µM, 7x7, partner max 1 µM)
highest
CCN(CCO)CCCOc1ccc2c(Nc3cc(CC(=O)Nc4cccc(F)c4)[nH]n3)ncnc2c1 [AZD2811] + C=CCn1c(=O)c2cnc(Nc3ccc(N4CCN(C)CC4)cc3)nc2n1-c1cccc(C(C)(C)O)n1 [AZD1775] (first compound max 1 µM, partner max 1 µM)
highest

Lab log: CC1(C)CCC(CN2CCN(c3ccc(C(=O)NS(=O)(=O)c4ccc(NCC5CCOCC5)c([N+](=O)[O-])c4)c(Oc4cnc5[nH]ccc5c4)c3)CC2)=C(c2ccc(Cl)cc2)C1 [Venetoclax] + C[C@@H](Nc1cc(F)cc(F)c1)c1cc(C(=O)N(C)C)cc2c(=O)cc(N3CCOCC3)oc12 [AZD8186] (first compound max 1 µM, 7x7, partner max 3 µM) — assign Bliss excess category
middle

Lab log: COc1cccc(OCCCN)c1-c1cc(Nc2cnc(C#N)cn2)n[nH]1 [Prexasertib] + CN(C)CCCOc1ccc(-c2ccc3ncc4c(c3c2)n(C2CCOCC2)c(=O)n4C)cn1 [AZD0156] (first compound max 1 µM, 7x7, partner max 1 µM) — assign Bliss excess category
middle
